- Tested on: goosegrass (Eleusine indica)
- measurement protocol: Test B pre-/postemergence plant response
- Type: in vivo
- condition summary: 8 g ai/ha, postemergence; 0-100 scale
Goosegrass plant response rating values, listed per item
When you answer, write just the number.

Examples with their reported Goosegrass plant response rating follow.
# entry smiles, Goosegrass plant response rating
measured = [
    ("Cc1cc(-c2ccc(Cl)cc2)nn1-c1c(OC(=O)CC(C)C)cnn(C)c1=O", 100),
    ("Cn1ncc(O)c(-n2nc(-c3ccc(Cl)cc3)cc2C2CC2)c1=O", 65),
]

Prompt: Tell me measured Goosegrass plant response rating for CCc1c(C)c(-c2ccc(Br)cc2)nn1-c1c(O)cnn(C)c1=O please.
Response: 0

Prompt: # return recorded Goosegrass plant response rating for input Cc1nn(C)c(=O)c(-c2nc(-c3ccc(Cl)cc3)sc2C)c1O
Response: 60

###

The compounds listed here are annotated with their Cupgrass, Woolly plant response rating.
- System: woolly cupgrass (Eriochloa villosa)
- measurement protocol: Test B pre-/postemergence plant response
- Format: in vivo
- condition summary: Preemergence; 8 g ai/ha; scale 0 to 100
Reply with just the number.

Prompt: Quote Cupgrass, Woolly plant response rating reported for CCCc1cc(-c2ccc(C(F)(F)F)cc2)nn1-c1c(O)cnn(C)c1=O please.
Response: 70

Prompt: Identify Cupgrass, Woolly plant response rating associated with the compound Cc1cc(-c2ccc(Cl)cc2)nn1-c1c(OC(=O)CC(C)C)cnn(C)c1=O
Response: 50

Prompt: Read off the recorded Cupgrass, Woolly plant response rating for Cc1cc(-c2ccc(C(F)(F)F)cc2)nn1-c1c(O)c(C(C)C)nn(C)c1=O
Response: 0

Prompt: Supply reported Cupgrass, Woolly plant response rating belonging to this compound: Cc1cc(-c2ccc(Cl)cc2)nn1-c1c(OS(=O)(=O)C(C)C)cnn(C)c1=O
Response: 20

###

- Tested on: wild oat (Avena fatua)
- measurement protocol: Test C pre-/postemergence plant response
- Type: in vivo
- condition summary: Preemergence, 8 g ai/ha; scale 0 to 100 (0 no effect, 100 complete control)
assay readout: Plant response rating, Oat, Wild

Answered cases to consult:
# entry smiles, reported value
data = [
    ("Cc1cc(-c2ccc(Cl)cc2)nn1-c1c(OS(=O)(=O)c2ccccc2)cnn(C)c1=O", 0),
    ("CCCc1cc(-c2ccc(Cl)cc2)nn1-c1c(O)cnn(C)c1=O", 35),
    ("Cc1cc(-c2ccc(Cl)cc2)nn1-c1c(OC(=O)c2cccs2)cnn(C)c1=O", 0),
    ("Cc1cc(-c2ccc(Cl)cc2)nn1-c1c(OC(=O)Oc2ccccc2)cnn(C)c1=O", 0),
]

Let's switch to this compound now.
Prompt: Report Plant response rating, Oat, Wild, nothing else, for this compound: CCc1cc(-c2ccc(Cl)cc2)nn1-c1c(O)cnn(C)c1=O
Response: 65

###

- Tested on: barnyardgrass (Echinochloa crus-galli)
- measurement protocol: Test A pre-/postemergence plant response
- Type: in vivo
- condition summary: Preemergence, 125 g ai/ha; 0 to 100 scale (0 no effect, 100 complete control)
assay readout: Plant response rating, Barnyardgrass

# compound, reported value
rows = [
    ("Cc1nc(-c2ccc(Cl)cc2)nn1-c1c(O)cnn(C)c1=O [Compound 17]", 40),
    ("Cc1cc(-c2ccc(OC(F)(F)F)cc2)nn1-c1c(O)cnn(C)c1=O [Compound 14]", 70),
    ("Cc1cc(-c2ccc(Cl)cc2)nn1-c1c(OS(=O)(=O)c2cccc3ccccc23)cnn(C)c1=O [Compound 47]", 80),
]

Prompt: Enter measured Plant response rating, Barnyardgrass, system barnyardgrass (Echinochloa crus-galli), for the compound shown: Cc1cc(-c2ccc(Cl)cc2)nn1-c1c(OC(=O)CC(C)C)cnn(C)c1=O [Compound 37]
Response: 100
